# PROTOCOL DETAILS: PK assay: half life in the lung after intra-tracheal administration
# Assay type: in vivo
# CONDITION PARAMETERS: rat, other: intra-tracheal, 10 ug/kg; male Sprague-Dawley rats, single intra-tracheal dose 10 μg/Kg, lung homogenate; free base; read-out: terminal lung t1/2 (converted)
Give measured half-life for each item. Keep answers brief.

[
  {
    "SMILES TEXT": "N#Cc1ccc([C@H]2NC(=O)N(c3cccc(C(F)(F)F)c3)C3=C2C(=O)N(CCCNCCCN2CC4=C(C2=O)[C@@H](c2ccc(C#N)nc2)NC(=O)N4c2cccc(C(F)(F)F)c2)C3)cn1",
    "MEASURED RESULT": "37 h"
  }
]

Next item in the queue.
Return half-life for the following compound: N#Cc1ccc([C@H]2NC(=O)N(c3cccc(C(F)(F)F)c3)C3=C2C(=O)N(CCCNCCCN2CC4=C(C2=O)[C@@H](c2ccc(C#N)cc2)NC(=O)N4c2cccc(C(F)(F)F)c2)C3)cc1 94 h

// provenance: patent US8455505B2
